Data origin, for the record: patent US20240360151A1

- Measured On: NLRP3 inflammasome (Homo sapiens, UniProt Q96P20)
- Construct: endogenous in cells; host or cells: THP-1 monocytic cells
- Sequence (Q96P20 whole entry): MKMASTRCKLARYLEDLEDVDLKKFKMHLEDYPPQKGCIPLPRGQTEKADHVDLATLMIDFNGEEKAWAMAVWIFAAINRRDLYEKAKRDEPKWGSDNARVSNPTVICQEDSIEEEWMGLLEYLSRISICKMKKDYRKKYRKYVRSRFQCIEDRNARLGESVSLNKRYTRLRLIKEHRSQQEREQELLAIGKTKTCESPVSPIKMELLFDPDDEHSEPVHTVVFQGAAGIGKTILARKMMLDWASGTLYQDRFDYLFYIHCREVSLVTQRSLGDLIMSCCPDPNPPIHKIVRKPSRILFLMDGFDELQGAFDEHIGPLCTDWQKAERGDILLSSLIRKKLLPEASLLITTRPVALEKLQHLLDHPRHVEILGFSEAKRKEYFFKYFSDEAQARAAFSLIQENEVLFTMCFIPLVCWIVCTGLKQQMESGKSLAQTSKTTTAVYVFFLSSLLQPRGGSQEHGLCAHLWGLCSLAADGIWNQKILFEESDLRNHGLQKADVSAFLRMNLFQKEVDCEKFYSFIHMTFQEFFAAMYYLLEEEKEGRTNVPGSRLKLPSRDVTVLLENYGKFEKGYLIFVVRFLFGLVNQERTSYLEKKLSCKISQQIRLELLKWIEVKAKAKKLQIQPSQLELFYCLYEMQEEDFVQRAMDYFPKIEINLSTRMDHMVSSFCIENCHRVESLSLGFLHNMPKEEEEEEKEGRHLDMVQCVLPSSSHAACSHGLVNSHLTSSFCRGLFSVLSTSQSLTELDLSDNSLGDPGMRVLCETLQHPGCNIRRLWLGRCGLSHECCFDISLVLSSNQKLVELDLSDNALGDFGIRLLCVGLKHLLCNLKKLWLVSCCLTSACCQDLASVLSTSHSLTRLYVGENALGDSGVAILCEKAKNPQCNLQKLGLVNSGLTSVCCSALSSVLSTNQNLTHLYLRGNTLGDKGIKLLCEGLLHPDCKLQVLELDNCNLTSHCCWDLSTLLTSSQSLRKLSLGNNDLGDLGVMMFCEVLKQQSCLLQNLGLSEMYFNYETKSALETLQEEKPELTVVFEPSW
- Protocol Description: IL-1β secretion assay (NLRP3 IC50) in LPS-primed, nigericin-activated THP-1 cells, HTRF
- Type: cell-based
- Applied Conditions: monocytic THP-1 cells; LPS 10 ng/mL 3 h priming, then compound + nigericin 10 μM 2 h; relative IC50, 10 concentrations, geometric mean
pIC50: −log10 of the molar value.
Measurement Kind: pIC50

Check out these entries, answers already filled in.
Cc1cc(N2CCO[C@H](CO)C2)nnc1-c1ccc(F)cc1O	6.06
Cc1cc(Cl)cc(O)c1-c1ccc(N2CCO[C@H](CNC(=O)C(C)C)C2)nn1	6.56

P = Cc1cc(C(F)(F)F)cc(O)c1-c1ccc(N2CCOC(C(C)(C)O)C2)nn1 (stereo not drawn) [Example 26]
Q = Cc1ccc(C)c(-c2ccc(N3CCO[C@H](CO)C3)nn2)c1O
R = Cc1cc(C)c(-c2ccc(N3C[C@H](CO)O[C@@H](CO)C3)nn2)c(O)c1
## Task Give the ascending ranking of the items by reported pIC50. Please write the labels in the order that was asked for.
## Result P, Q, R
(P: 6.45, Q: 6.88, R: 7.12)

====

- Measured On: NLRP3 inflammasome (Homo sapiens, UniProt Q96P20)
- Construct: endogenous in cells
- Protocol Description: IL-1β secretion assay (NLRP3 IC50) in LPS-primed, nigericin-activated THP-1 cells, HTRF
- Applied Conditions: monocytic THP-1 cells; LPS 10 ng/mL 3 h priming, then compound + nigericin 10 μM 2 h; relative IC50, 10 concentrations, geometric mean
pIC50: −log10 of the molar value.
Measurement Kind: pIC50

Worked examples, 4 compounds total:
CC(=O)NC[C@@H]1CCCN(c2ccc(-c3c(C)cc(C(F)(F)F)cc3O)nn2)C1	7.09
Cc1cc(C(F)(F)F)cc(O)c1-c1ccc(N2CCCC2=O)nn1	7.05
CC(=O)N1CC[C@@H]2OCCN(c3ccc(-c4c(C)cc(C)cc4O)nn3)[C@@H]2C1 (racemic)	6.94
Cc1ccc(-c2nnc(N3CC[C@@H]4CCN(C)C[C@@H]43)cc2C(F)F)c(O)c1 (single isomer, unassigned)	6.87

P = Cc1cc(OC(F)(F)F)cc(O)c1-c1ccc(N2CCO[C@H](CO)C2)nn1
Q = Cc1cc(C)c(-c2ccc(N3CC[C@@H](CO)C3)nn2)c(O)c1
## Task Lower pIC50: P or Q ? Which one? Tell me its label.
## Result Q

====

- Measured On: NLRP3 inflammasome (Homo sapiens, UniProt Q96P20)
- Construct: endogenous in cells
- Protocol Description: IL-1β secretion assay (NLRP3 IC50) in LPS-primed, nigericin-activated THP-1 cells, HTRF
- Applied Conditions: monocytic THP-1 cells; LPS 10 ng/mL 3 h priming, then compound + nigericin 10 μM 2 h; relative IC50, 10 concentrations, geometric mean
Measurement Kind: IC50 (nM)

Worked examples, 3 compounds total:
Cc1cc(C)c(-c2ccc(N3CCO[C@H](CS)C3)nn2)c(O)c1	3870
Cc1cc(C)c(-c2ccc(N3CCOC(CF)C3)nn2)c(O)c1 (centres unmarked)	170
Cc1ccc(-c2nnc(N3CCO[C@H](CO)C3)cc2C)c(O)c1	66

I = CC(=O)NC[C@H]1CN(c2ccc(-c3c(C)cc(C)cc3O)nn2)CCO1
II = Cc1cc(C(F)(F)F)cc(O)c1-c1ccc(N2C[C@@H](O)CC2=O)nn1
## Task Of I and II , which carries the smaller reported IC50 figure? Please respond with the label that marks your chosen entry.
## Result II
(II: 52 nM, I: 335 nM)
